# ASSAY SYSTEM: furin, P09958;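 further: purified furin at 1:10 enzyme:substrate in 50 mM HEPES pH 7.5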
# Sequence (P09958 whole entry): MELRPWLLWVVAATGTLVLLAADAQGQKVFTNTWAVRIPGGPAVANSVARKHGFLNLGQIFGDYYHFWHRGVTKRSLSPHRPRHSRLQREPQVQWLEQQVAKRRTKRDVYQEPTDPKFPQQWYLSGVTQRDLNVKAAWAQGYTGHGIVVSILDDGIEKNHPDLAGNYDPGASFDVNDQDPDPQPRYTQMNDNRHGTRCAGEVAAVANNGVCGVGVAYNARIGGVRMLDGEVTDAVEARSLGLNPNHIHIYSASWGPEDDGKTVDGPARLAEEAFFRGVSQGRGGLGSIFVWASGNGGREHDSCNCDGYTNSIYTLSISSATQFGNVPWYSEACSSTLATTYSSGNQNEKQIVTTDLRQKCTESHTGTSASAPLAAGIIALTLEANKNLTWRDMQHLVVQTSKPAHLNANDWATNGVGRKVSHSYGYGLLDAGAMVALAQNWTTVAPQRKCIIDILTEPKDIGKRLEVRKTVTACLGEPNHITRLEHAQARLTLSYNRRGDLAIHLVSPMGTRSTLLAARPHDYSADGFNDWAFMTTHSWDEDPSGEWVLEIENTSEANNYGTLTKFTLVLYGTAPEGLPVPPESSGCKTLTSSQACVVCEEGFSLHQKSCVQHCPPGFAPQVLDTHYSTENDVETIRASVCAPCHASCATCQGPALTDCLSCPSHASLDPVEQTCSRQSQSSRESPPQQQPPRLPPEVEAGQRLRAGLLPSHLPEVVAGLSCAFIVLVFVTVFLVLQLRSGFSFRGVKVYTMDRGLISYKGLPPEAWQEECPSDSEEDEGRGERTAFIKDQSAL
# TEST: furin cleavage Z-score vs untreated control; higher = more cleavage, active = 3.5 or more, inactive = 1 or less, 8 variable residues between constant flanks
# CONDITION INFO: 15 min
The list shows a part of the results. No count for the full screen is at hand.
# if value of furin cleavage Z-score reaches 1, tag Condition met; if it stays below, tag Condition not met

(Q) Check the entry CARRKRAGGGAGNASASA [FS-2067] : does furin cleavage Z-score equal or exceed 1?
(A) Condition met

(Q) Now the same for CAQRKRGGTAAGNASASA [WN1]
(A) Condition not met

(Q) Try this sequence next: CATTPYSGSWAGNASASA [HC57]
(A) Condition not met

(Q) Now consider CARGKRQATAAGNASASA [FS-2016] and answer again.
(A) Condition met

(Q) Request: CARGKRRREKAGNASASA [FS-2017]
(A) Condition not met

(Q) Do the same for CAQPARIGRAAGNASASA [FS-1152] please
(A) Condition met

(Q) Then CACRAAGLQDAGNASASA [HC1522] ?
(A) Condition not met

(Q) Ok, now CARRKRIVGGAGNASASA [FS-2228]
(A) Condition met

(Q) And then CARGKRHATKAGNASASA [FS-2015] , what is it?
(A) Condition met

(Q) Likewise for CAECYDAGCAAGNASASA [HC920] ?
(A) Condition not met

(Q) // query: CARGKRYSYKAGNASASA [FS-2019]
(A) Condition not met

(Q) Try this sequence next: CARRKRKSQRAGNASASA [FS-2402]
(A) Condition met

(Q) Lookup CAFERRSFETAGNASASA [FS-2390]
(A) Condition not met

(Q) Entry CAAASLRAFTAGNASASA [HC1537] please
(A) Condition not met

(Q) Again, but for CARRKRRHHKAGNASASA [FS-1969]
(A) Condition met

Where do the numbers come from? From the supplement of paper PMC3545927.
